# credit: the supplement of paper PMC10307832

System: NCI-H2023
Assay Remarks: relative viability (nuclei count vs DMSO), 5 days (fraction); higher = more cells survive
Assay Setup: first compound 0.08 µM
# strict inequality: relative viability < 0.4 yields 1 (yes), everything else yields 0 (no)

Below are worked cases with known answers.
Given the entry COc1nc(C)cnc1NS(=O)(=O)c1cccnc1-c1ccc(-c2nnco2)cc1 [Zibotentan] + COc1cccc2cc(-c3nc([C@H]4CC[C@H](C(=O)O)CC4)n4ncnc(N)c34)[nH]c12 [OSI-027] (partner 0.5 µM) , would its reported relative viability be below 0.4?
0 (no)

Given the entry COc1nc(C)cnc1NS(=O)(=O)c1cccnc1-c1ccc(-c2nnco2)cc1 [Zibotentan] + C[C@@H](Oc1cc(-c2cnn(C3CCNCC3)c2)cnc1N)c1c(Cl)ccc(F)c1Cl [Crizotinib] (partner 1 µM) , would its reported relative viability be below 0.4?
0 (no)

Given the entry O=c1cc(-c2cccc3c2Sc2ccccc2S3)oc(N2CCOCC2)c1 + CCNC(=O)c1noc(-c2cc(C(C)C)c(O)cc2O)c1-c1ccc(CN2CCOCC2)cc1 [Luminespib] (partner 0.01 µM) , would its reported relative viability be below 0.4?
0 (no)

Given the entry O=c1cc(-c2cccc3c2Sc2ccccc2S3)oc(N2CCOCC2)c1 + O=C(c1cc(Cc2n[nH]c(=O)c3ccccc23)ccc1F)N1CCN(C(=O)C2CC2)CC1 [Olaparib] (partner 8 µM) , would its reported relative viability be below 0.4?
0 (no)

Given the entry O=c1cc(-c2cccc3c2Sc2ccccc2S3)oc(N2CCOCC2)c1 + Nc1nc2[nH]cc(CCc3ccc(C(=O)N[C@@H](CCC(=O)O)C(=O)O)cc3)c2c(=O)[nH]1 [Pemetrexed] (partner 0.2 µM) , would its reported relative viability be below 0.4?
1 (yes)

Given the entry COc1nc(C)cnc1NS(=O)(=O)c1cccnc1-c1ccc(-c2nnco2)cc1 [Zibotentan] + O=C(c1cc(Cc2n[nH]c(=O)c3ccccc23)ccc1F)N1CCN(C(=O)C2CC2)CC1 [Olaparib] (partner 8 µM) , would its reported relative viability be below 0.4?
0 (no)

Given the entry COc1nc(C)cnc1NS(=O)(=O)c1cccnc1-c1ccc(-c2nnco2)cc1 [Zibotentan] + Nc1ncn([C@H]2C[C@H](O)[C@@H](CO)O2)c(=O)n1 [Decitabine] (partner 2 µM) , would its reported relative viability be below 0.4?
1 (yes)

More entries:
Given the entry COc1nc(C)cnc1NS(=O)(=O)c1cccnc1-c1ccc(-c2nnco2)cc1 [Zibotentan] + CC(C)C[C@H](NC(=O)[C@H](Cc1ccccc1)NC(=O)c1cnccn1)B(O)O [Bortezomib] (partner 0.002 µM) , would its reported relative viability be below 0.4?
0 (no)

----------
Tested on: NCI-H3122
Assay Remarks: relative viability (nuclei count vs DMSO), 5 days (fraction); higher = more cells survive
Assay Setup: first compound 0.3162 µM
Measured Attribute: relative viability
Give a plain numeric answer without units written out.

// worked examples, relative viability included
What the record says about CCN(CC)CCCCNc1ncc2cc(-c3cc(OC)cc(OC)c3)c(NC(=O)NC(C)(C)C)nc2n1 + CCNC(=O)c1noc(-c2cc(C(C)C)c(O)cc2O)c1-c1ccc(CN2CCOCC2)cc1 [Luminespib] (partner 0.01 µM) : relative viability is 0.0822

What the record says about O=c1cc(N2CCOCC2)oc2c(-c3cccc4c3sc3ccccc34)cccc12 + Cc1nc(Nc2ncc(C(=O)Nc3c(C)cccc3Cl)s2)cc(N2CCN(CCO)CC2)n1 [Dasatinib] (partner 0.075 µM) : relative viability is 0.764

What the record says about O=c1cc(N2CCOCC2)oc2c(-c3cccc4c3sc3ccccc34)cccc12 + CC(C)C[C@H](NC(=O)[C@H](Cc1ccccc1)NC(=O)c1cnccn1)B(O)O [Bortezomib] (partner 0.002 µM) : relative viability is 0.947

What the record says about CCN(CC)CCCCNc1ncc2cc(-c3cc(OC)cc(OC)c3)c(NC(=O)NC(C)(C)C)nc2n1 + Nc1nc2[nH]cc(CCc3ccc(C(=O)N[C@@H](CCC(=O)O)C(=O)O)cc3)c2c(=O)[nH]1 [Pemetrexed] (partner 0.2 µM) : relative viability is 0.203

What the record says about O=c1cc(N2CCOCC2)oc2c(-c3cccc4c3sc3ccccc34)cccc12 + CCNC(=O)c1noc(-c2cc(C(C)C)c(O)cc2O)c1-c1ccc(CN2CCOCC2)cc1 [Luminespib] (partner 0.01 µM) : relative viability is 0.0864

What the record says about O=c1cc(N2CCOCC2)oc2c(-c3cccc4c3sc3ccccc34)cccc12 + CC1(C)CCC(c2ccc(Cl)cc2)=C(CN2CCN(c3ccc(C(=O)NS(=O)(=O)c4ccc(N[C@H](CCN5CCOCC5)CSc5ccccc5)c(S(=O)(=O)C(F)(F)F)c4)cc3)CC2)C1 [Navitoclax] (partner 0.5 µM) : relative viability is 0.966

What the record says about CCN(CC)CCCCNc1ncc2cc(-c3cc(OC)cc(OC)c3)c(NC(=O)NC(C)(C)C)nc2n1 + Nc1ncn([C@H]2C[C@H](O)[C@@H](CO)O2)c(=O)n1 [Decitabine] (partner 2 µM) : relative viability is 0.448

What the record says about O=c1cc(N2CCOCC2)oc2c(-c3cccc4c3sc3ccccc34)cccc12 + Nc1ncn([C@H]2C[C@H](O)[C@@H](CO)O2)c(=O)n1 [Decitabine] (partner 2 µM) : relative viability is 0.452

Turning to the following compound.
What the record says about CCN(CC)CCCCNc1ncc2cc(-c3cc(OC)cc(OC)c3)c(NC(=O)NC(C)(C)C)nc2n1 + NC(=O)Nc1cc(-c2cccc(F)c2)sc1C(=O)N[C@H]1CCCNC1 [AZD7762] (partner 0.2 µM) : relative viability is 0.971
